Test system: ACHN
method: NCI tumour cell line growth inhibition, 48 h
Calls of active or inactive are those of the source. No stated cut-off is given here; in the data, active = GI50 up to about 1.1 µM and inactive = higher.
Please answer using one outcome listed in active, inactive

Worked examples, 2 compounds total:
{"compound": "Cc1ccccc1C(=O)N1CCc2c([nH]c3ccccc23)C1", "category.label": "inactive"}
{"compound": "CC[P+]1(CC)CCCC1", "category.label": "inactive"}

*Q* Could you please tell me the result logged for `Nc1nc(Cl)cc(NCCC2(CO)CCC2)n1` in this assay?
*A* inactive

*Q* How did this test come out for `CC[C@@H]1CC[C@@H]2[C@H](CC[C@]3(C)[C@@H](OS(=O)(=O)c4ccc(C)cc4)CC[C@@H]23)[C@H]1COS(=O)(=O)c1ccc(C)cc1` ?
*A* inactive

Every entry's value here was drawn from ChEMBL document CHEMBL1201862.
